Experiment: physchem
Conditions: FaSSIF, 23 °C, thermodynamic from solid
For each of the compounds below, state its log10 of solubility thermodynamic at 24 h.
Would you kindly interpret these values as log10 of solubility thermodynamic at 24 h expressed in µg/mL?

Look over these answered cases.
CCCCCCCCCCCCCC(=O)OCc1ccccc1C(=O)Oc1c2n(cc(C(=O)NCc3ccc(F)cc3F)c1=O)[C@@H]1CN(C2=O)[C@@H](C)CC[C@]12CC(C)=NO2 = 0.48
CC1=NO[C@@]2(CC[C@H](C)N3C[C@H]2n2cc(C(=O)NCc4ccc(F)cc4F)c(=O)c(OCOC(=O)N(C)C[C@@H]4CCCN4)c2C3=O)C1 = 3.30
CC1=NO[C@@]2(CC[C@H](C)N3C[C@H]2n2cc(C(=O)NCc4ccc(F)cc4F)c(=O)c(OCOC(=O)N(C)c4ncccc4COP(=O)(O)O)c2C3=O)C1 = 3.69

Each compound below has a reported value. Please supply its log10 of solubility thermodynamic at 24 h.
1. CC1=NO[C@@]2(CC[C@H](C)N3C[C@H]2n2cc(C(=O)NCc4ccc(F)cc4F)c(=O)c(OCOC(=O)[C@H]4[C@@H](COP(=O)(O)O)[C@@H]4C(=O)O)c2C3=O)C1
2. CC1=NO[C@@]2(CC[C@H](C)N3C[C@H]2n2cc(C(=O)NCc4ccc(F)cc4F)c(=O)c(OCOC(=O)N(C)c4ncccc4COC(=O)[C@H](C)N)c2C3=O)C1

1: 3.66; 2: 0.30

Source: patent US20250127801A1
